B1: Tudor domain-containing protein 3, residues 554 to 611; numbered along this chain, Q9H7E2 (parent)
chain: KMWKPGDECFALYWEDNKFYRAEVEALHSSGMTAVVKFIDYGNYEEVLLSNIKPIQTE

variants of: B1; assay: abundance fitness (aPCA) (normalised: wild type 0, dead -1); higher = more abundant; growth selection in yeast, the domain comes from the species named; settings: Homo sapiens
recorded endpoint: abundance fitness

S30Y; -0.463
A26K; 0.158
M32W; -0.137
V47F; -0.636
N43L; 0.01
S50K; 0.03
D16K; -0.366
E23T; -0.004
K4A; -0.092
V35G; -0.384
M2W; -0.657
L49Q; -0.583
E25K; 0.051
S29E; -0.008
L48T; -0.218
A34K; -0.646
M2Y; -0.15

Entry source: the Human Domainome abundance scans (Beltran et al. 2025)
